- System: SiHa
- test: Growth inhibition of human SiHa cells incubated for 72 hrs at 10 uM by CCK8 assay
- Type: functional
- measurement.parameters: read-out: GI
Catalogue of compounds with associated inhibition of growth at 10 µM

smi	inhibition of growth at 10 µM, %
CN(C)C(=O)c1cc2cnc(Nc3ccc(NC(=O)C4(C(=O)Nc5ccc(Cl)c(C(F)(F)F)c5)CC4)cc3)nc2n1C1CCCC1	61.1
CN(C)C(=O)c1cc2cnc(Nc3ccc(NC(=O)C4(C(=O)Nc5ccc(F)cc5)CC4)cc3)nc2n1C1CCCC1	98
Cc1ccc(NC(=O)C2(C(=O)Nc3ccc(Nc4ncc5cc(C(=O)N(C)C)n(C6CCCC6)c5n4)cc3)CC2)cc1	104
CN(C)C(=O)c1cc2cnc(Nc3ccc(NC(=O)C4(C(=O)Nc5cccc(O)c5)CC4)cc3)nc2n1C1CCCC1	75.7
